- ASSAY_EXPLANATION: Half life in human liver microsomes at 1 uM up to 60 mins in presence of NADPH by LC-MS/MS analysis
- Type: ADME, Microsome
METRIC: half-life at 1 µM (min)
The answer is to be given in min; state only the numeric part.

Reported half-life at 1 µM for CCOC(=O)c1ccc(-n2c(/C=C3\OC(=O)c4c3cc(C)[nH]c4=O)ccc2CO)cc1 : what is it?
13

----------
- ASSAY_EXPLANATION: Protein binding in rat plasma assessed as bound fraction at 10 uM after 6 hrs by LC-MS/MS analysis
- Format: ADME, cell-free
- CONDITION_LABEL: read-out: PPB (converted)
METRIC: fraction unbound at 6 h, 10 µM
Provide a numeric answer; units are not to be included.

Reported fraction unbound at 6 h, 10 µM for CCOC(=O)c1ccc(-n2c(/C=C3\OC(=O)c4c3cc(C)[nH]c4=O)ccc2CO)cc1 : what is it?
0.0156
